meta.source: paper PMC9122904

- System name: T1, Spy_(29-124) R61D R62D (UniProt P77754 52-147, R61D | R62D)
- T1 construct: source: E. coli BL21 (DE3), purified (Ni-NTA, cation exchange, SEC); not shown: His6, N-terminal, cleaved; SUMO, N-terminal, cleaved
- T1 sequence (looked up): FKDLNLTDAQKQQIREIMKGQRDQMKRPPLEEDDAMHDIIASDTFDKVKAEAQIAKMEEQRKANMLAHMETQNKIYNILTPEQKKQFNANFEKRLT
- Assay: BLI; Octet RED96; client biotinylated and loaded on streptavidin sensors; Spy or Spy variant in solution at 0.25, 0.5, 1, 1.5 and 2 μM; 40 mM HEPES, 150 mM NaCl, pH 7.5; Kd calculated as koff/kon
- Protocol conditions: both partners purified
pKd: −log10 of the molar value.
Observable: pKd

| Binder | Recorded value |
| --- | --- |
| Im7 H40W L53A I54A (natural protein, biotin (EZ-link NHS-biotin, 1:1 molar ratio of biotin to protein), Im7 (colicin E7 immunity protein) with H40W L53A I54A; Spy was made with an N-terminal His6-SUMO tag that was cleaved; also called Im7AAW; partially folded client; source: purified by a similar procedure to Spy) MELKNSISDYTEAEFVQLLKEIEKENVAATDDVLDVLLEWFVKITEHPDGTDAAYYPSDNRDDSPEGIVKEIKEWRAANGKPGFKQG | 5.45 |
